test system: HEK-293T; assay: Multiplex assay against HEK293T; format: toxicity, cell-based; details: human, 24 h, 10 µM, compound concentration 10 uM, replicate 2
assay-readout: Total Cell Count

>>> result_value("Cl.O=C(O)c1cc(-c2ccc(C3CCNCC3)cc2)c2ccc(-c3ccc(C(F)(F)F)cc3)cc2c1")
112
>>> result_value("C=CC(=O)Nc1cccc(Oc2nc(Nc3ccc(N4CCN(C)CC4)cc3OC)ncc2Cl)c1")
2281
>>> result_value("CC(C)CC(=O)Nc1[nH]nc2c1CN(C(=O)C1CCN(C)CC1)C2(C)C [PHA-793887]")
1297
>>> result_value("O=c1cc(N2CCOCC2)oc2c(-c3cccc4c3sc3ccccc34)cccc12")
186
>>> result_value("COc1ccc(-c2ccc3ncc4c(c3c2)n(-c2ccc(N3CCNCC3)c(C(F)(F)F)c2)c(=O)n4C)cn1.O=C(O)/C=C\\C(=O)O [BGT-226]")
422
>>> result_value("COc1ccccc1CN[C@H]1C2CCN(CC2)[C@H]1C(c1ccccc1)c1ccccc1 [CP-96345]")
218
>>> result_value("Cc1ccc(C)c(Oc2ccncc2C(=O)N2CCN(C3CC3)c3ccccc32)c1")
127
>>> result_value("CN1CCN(Cc2ccc(Nc3ncc(Cl)c(Nc4ccccc4S(=O)(=O)N(C)C)n3)cc2)CC1 [DUBERMATINIB]")
222
>>> result_value("CCCSc1nc(N[C@@H]2C[C@H]2c2ccc(F)c(F)c2)c2nnn([C@@H]3C[C@H](OCCO)[C@@H](O)[C@H]3O)c2n1 [TICAGRELOR]")
182
>>> result_value("Cc1ccc2c(c1)c1c(n2CCc2ccc(C)nc2)CCN(C)C1 [LATREPIRDINE]")
220
>>> result_value("COc1cc2ncn(-c3cc(OCc4ccccc4C(F)(F)F)c(C(N)=O)s3)c2cc1OC [GW843682X]")
264
>>> result_value("CC(C)NC(=O)N1CC[C@H](NC2=Nc3cc(F)ccc3N(CC(F)F)c3ccc(Cl)cc32)C1")
169
>>> result_value("CC1=C(C(=O)Nc2cc3cn[nH]c3cc2F)C(c2ccc(C(F)(F)F)cc2)CC(=O)N1 (stereo not drawn)")
258

###

tested on: HEK-293T; assay: Multiplex assay against HEK293T; type: toxicity, cell-based; conditions: human, 12 h, 10 µM, compound concentration 10 uM, replicate 1
Overview of reported Population Fragmented Nuclei (%) across a group of compounds:
assay-readout: Population Fragmented Nuclei (%)

>>> result_value("CNC(=O)Nc1ccc2c(c1)[C@@]1(CC2)OC(=O)N(CC(=O)N(Cc2ccc(F)cc2)[C@@H](C)C(F)(F)F)C1=O [A-486]")
20
>>> result_value("CCc1ccc(OCc2ccccc2C(=O)Nc2ccc3nc(C)cc(N)c3c2)cc1.Cl")
19
>>> result_value("O=C(c1cc2c(cc1F)OC(c1ccc(F)cc1)(c1ccc(Cl)cc1Cl)O2)N1CCOCC1 (configuration not stated)")
10
>>> result_value("CC(C)(C)NC[C@H](O)COc1nsnc1N1CCOCC1 [TIMOLOL]")
9
>>> result_value("O=c1[nH]c2ccccc2n1C1CCN(Cc2ccc(-c3[nH]c4cc5ncnc5cc4nc3-c3ccccc3)cc2)CC1")
10
>>> result_value("CC(C)c1noc(N2CCC(COc3ccc(-c4ccc(S(C)(=O)=O)cc4)nc3)CC2)n1 [GSK-1292263]")
14
>>> result_value("O=c1cc(N2CCOCC2)oc2c(-c3cccc4c3sc3ccccc34)cccc12")
16
>>> result_value("COc1cc2ncn(-c3cc(OCc4ccccc4C(F)(F)F)c(C(N)=O)s3)c2cc1OC [GW843682X]")
12
>>> result_value("CC(C)OC(=O)N1CCC(Oc2ncnc3c2cnn3-c2ccc(S(C)(=O)=O)cc2F)CC1")
16
>>> result_value("C=CC(=O)Nc1ccc2[nH]c(=O)n(C3CCN(Cc4ccc(-c5nc6cc[nH]c(=O)c6cc5-c5ccccc5)cc4)CC3)c2c1 [Borussertib]")
17
>>> result_value("Cc1nc(N2CC[C@H](O)C2)ncc1-c1cc(C(F)(F)F)cc2[nH]ncc12")
11
>>> result_value("CC(C)NC(=O)N1CC[C@H](NC2=Nc3cc(F)ccc3N(CC(F)F)c3ccc(Cl)cc32)C1")
24
>>> result_value("CCCSc1nc(N[C@@H]2C[C@H]2c2ccc(F)c(F)c2)c2nnn([C@@H]3C[C@H](OCCO)[C@@H](O)[C@H]3O)c2n1 [TICAGRELOR]")
34
>>> result_value("CCc1nn(CCCN2CCN(c3cccc(Cl)c3)CC2)c(=O)n1CCOc1ccccc1.Cl [NEFAZODONE HYDROCHLORIDE]")
29
>>> result_value("CC(C)Oc1ccccc1C(=O)Nc1ccccc1C(=O)Nc1cccc(S(=O)(=O)C(F)(F)F)c1")
11
>>> result_value("COc1ccc(-c2ccc3ncc4c(c3c2)n(-c2ccc(N3CCNCC3)c(C(F)(F)F)c2)c(=O)n4C)cn1.O=C(O)/C=C\\C(=O)O [BGT-226]")
28
>>> result_value("CC(C)CC(=O)Nc1[nH]nc2c1CN(C(=O)C1CCN(C)CC1)C2(C)C [PHA-793887]")
13
>>> result_value("Cc1c[nH]c2nccc(Oc3c(F)cc(Nc4cc(Cl)nc(N)n4)cc3F)c12 [BAY-549]")
9
>>> result_value("CNC(=O)Nc1ccc(-c2nc(N3CC4CCC(C3)O4)c3cnn(C4CCC5(CC4)OCCO5)c3n2)cc1")
18
>>> result_value("Cc1ccc2c(c1)c1c(n2CCc2ccc(C)nc2)CCN(C)C1 [LATREPIRDINE]")
30
>>> result_value("CC1=C(C(=O)Nc2cc3cn[nH]c3cc2F)C(c2ccc(C(F)(F)F)cc2)CC(=O)N1 (configuration not stated)")
12
>>> result_value("Cl.O=C(O)c1cc(-c2ccc(C3CCNCC3)cc2)c2ccc(-c3ccc(C(F)(F)F)cc3)cc2c1")
16

###

tested on: U2OS; experiment: Multiplex assay against U2OS; assay type: toxicity, cell-based; details: human, 48 h, 10 µM, compound concentration 10 uM, replicate 1
assay-readout: Population Tubulin-Different-Phenotype (%)

>>> result_value("CC(C)c1noc(N2CCC(COc3ccc(-c4ccc(S(C)(=O)=O)cc4)nc3)CC2)n1")
9
>>> result_value("CCc1ccc(OCc2ccccc2C(=O)Nc2ccc3nc(C)cc(N)c3c2)cc1.Cl")
90
>>> result_value("CNC(=O)Nc1ccc(-c2nc(N3CC4CCC(C3)O4)c3cnn(C4CCC5(CC4)OCCO5)c3n2)cc1")
94
>>> result_value("CCOC(=O)Nc1cc(-c2ccc(C)c(NS(C)(=O)=O)c2)nn2c(C)nnc12")
98
>>> result_value("CCCSc1nc(N[C@@H]2C[C@H]2c2ccc(F)c(F)c2)c2nnn([C@@H]3C[C@H](OCCO)[C@@H](O)[C@H]3O)c2n1")
98
>>> result_value("Cc1ccc2c(c1)c1c(n2CCc2ccc(C)nc2)CCN(C)C1 [LATREPIRDINE]")
95

###

tested on: HEK-293T; test: Multiplex assay against HEK293T; format: toxicity, cell-based; settings: human, 12 h, 10 µM, compound concentration 10 uM, replicate 2
assay-readout: Population Mitotic Cells (%)

>>> result_value("CCc1nn(CCCN2CCN(c3cccc(Cl)c3)CC2)c(=O)n1CCOc1ccccc1.Cl [NEFAZODONE HYDROCHLORIDE]")
"16%"
>>> result_value("CNC(=O)Nc1ccc2c(c1)[C@@]1(CC2)OC(=O)N(CC(=O)N(Cc2ccc(F)cc2)[C@@H](C)C(F)(F)F)C1=O")
"95%"
>>> result_value("COc1cc(Nc2nccc(-c3cnn4nc(OC)ccc34)n2)cc(C(F)(F)F)c1")
"78%"
>>> result_value("CN1CCN(Cc2ccc(Nc3ncc(Cl)c(Nc4ccccc4S(=O)(=O)N(C)C)n3)cc2)CC1")
"83%"
>>> result_value("Cc1ccccc1C(c1ccccc1C)N1C2CCC1CC(O)(c1ccccc1)C2 (stereo not drawn)")
"78%"
>>> result_value("O=c1cc(N2CCOCC2)oc2c(-c3cccc4c3sc3ccccc34)cccc12")
"50%"
>>> result_value("C[C@]12CC[C@@H]3c4ccc(O)cc4CC[C@H]3[C@@H]1CC[C@@H]2O")
"89%"
>>> result_value("C=CC(=O)Nc1cccc(Oc2nc(Nc3ccc(N4CCN(C)CC4)cc3OC)ncc2Cl)c1")
"91%"
>>> result_value("COc1cc2ncn(-c3cc(OCc4ccccc4C(F)(F)F)c(C(N)=O)s3)c2cc1OC [GW843682X]")
"68%"
>>> result_value("Cl.O=C(O)c1cc(-c2ccc(C3CCNCC3)cc2)c2ccc(-c3ccc(C(F)(F)F)cc3)cc2c1")
"35%"
>>> result_value("Cc1c[nH]c2nccc(Oc3c(F)cc(Nc4cc(Cl)nc(N)n4)cc3F)c12")
"83%"
>>> result_value("CC(C)Oc1ccccc1C(=O)Nc1ccccc1C(=O)Nc1cccc(S(=O)(=O)C(F)(F)F)c1")
"33%"
>>> result_value("CC(C)c1noc(N2CCC(COc3ccc(-c4ccc(S(C)(=O)=O)cc4)nc3)CC2)n1")
"86%"
>>> result_value("O=C(c1cc2c(cc1F)OC(c1ccc(F)cc1)(c1ccc(Cl)cc1Cl)O2)N1CCOCC1 (stereo not drawn)")
"45%"
>>> result_value("CC(C)(C)NC[C@H](O)COc1nsnc1N1CCOCC1")
"91%"
>>> result_value("Cc1ccc(C)c(Oc2ccncc2C(=O)N2CCN(C3CC3)c3ccccc32)c1")
"43%"
>>> result_value("O=c1[nH]c2ccccc2n1C1CCN(Cc2ccc(-c3[nH]c4cc5ncnc5cc4nc3-c3ccccc3)cc2)CC1")
"75%"
>>> result_value("Cc1ccc2c(c1)c1c(n2CCc2ccc(C)nc2)CCN(C)C1 [LATREPIRDINE]")
"8%"
